Ref: ChEMBL document CHEMBL4033705

- tgt: Mushroom tyrosinase (Agaricus bisporus) (UniProt O42713+Q00024+C7FF04+C7FF05)
- test-details: Inhibition of mushroom tyrosinase at 10 uM using L-tyrosine as substrate incubated for 15 mins followed by substrate addition relative to control
// values below are reported inhibition
Note: state the figure and append the unit.

Sample records with inhibition:
| molecule | measured-attribute | result |
| --- | --- | --- |
| O=C(/C=C/c1ccc(O)cc1)c1ccc(O)cc1O [ISOLIQUIRITIGENIN] | inhibition | 12% |
| CC(C)=CCc1c(O)cc2occ(-c3ccc(O)cc3)c(=O)c2c1O [WIGHTEONE] | inhibition | 15% |
| CC(C)=CCc1cc(-c2coc3cc(O)cc(O)c3c2=O)cc(O)c1O [GLYCYRRHISOFLAVONE] | inhibition | 8% |
| CC1(C)C=Cc2c(O)ccc(-c3coc4cc(O)cc(O)c4c3=O)c2O1 | inhibition | 90% |

Q: Please report inhibition with Mushroom tyrosinase (Agaricus bisporus) (UniProt O42713+Q00024+C7FF04+C7FF05) for item "CC(C)=CCc1cc(-c2cc(=O)c3c(O)c(CC=C(C)C)c(O)cc3o2)ccc1O" .
Ans: 12%

Q: Please report inhibition with Mushroom tyrosinase (Agaricus bisporus) (UniProt O42713+Q00024+C7FF04+C7FF05) for item CC(C)=CCc1cc(/C=C/C(=O)c2ccc(O)cc2O)ccc1O [LICOAGROCHALCONE A] .
Ans: 16%

Q: Please report inhibition with Mushroom tyrosinase (Agaricus bisporus) (UniProt O42713+Q00024+C7FF04+C7FF05) for item "CC1(C)C=Cc2cc(-c3coc4cc(O)cc(O)c4c3=O)ccc2O1" .
Ans: 14%

Q: Please report inhibition with Mushroom tyrosinase (Agaricus bisporus) (UniProt O42713+Q00024+C7FF04+C7FF05) for item "COc1cc(O)c(-c2coc3cc(O)ccc3c2=O)c(OC)c1CC=C(C)C" .
Ans: 15%
